Molecular target: L-type (Cav 1.3) channels (Rattus norvegicus)
Construct: host or cells: tsA-201
Sequence (P27732 whole entry): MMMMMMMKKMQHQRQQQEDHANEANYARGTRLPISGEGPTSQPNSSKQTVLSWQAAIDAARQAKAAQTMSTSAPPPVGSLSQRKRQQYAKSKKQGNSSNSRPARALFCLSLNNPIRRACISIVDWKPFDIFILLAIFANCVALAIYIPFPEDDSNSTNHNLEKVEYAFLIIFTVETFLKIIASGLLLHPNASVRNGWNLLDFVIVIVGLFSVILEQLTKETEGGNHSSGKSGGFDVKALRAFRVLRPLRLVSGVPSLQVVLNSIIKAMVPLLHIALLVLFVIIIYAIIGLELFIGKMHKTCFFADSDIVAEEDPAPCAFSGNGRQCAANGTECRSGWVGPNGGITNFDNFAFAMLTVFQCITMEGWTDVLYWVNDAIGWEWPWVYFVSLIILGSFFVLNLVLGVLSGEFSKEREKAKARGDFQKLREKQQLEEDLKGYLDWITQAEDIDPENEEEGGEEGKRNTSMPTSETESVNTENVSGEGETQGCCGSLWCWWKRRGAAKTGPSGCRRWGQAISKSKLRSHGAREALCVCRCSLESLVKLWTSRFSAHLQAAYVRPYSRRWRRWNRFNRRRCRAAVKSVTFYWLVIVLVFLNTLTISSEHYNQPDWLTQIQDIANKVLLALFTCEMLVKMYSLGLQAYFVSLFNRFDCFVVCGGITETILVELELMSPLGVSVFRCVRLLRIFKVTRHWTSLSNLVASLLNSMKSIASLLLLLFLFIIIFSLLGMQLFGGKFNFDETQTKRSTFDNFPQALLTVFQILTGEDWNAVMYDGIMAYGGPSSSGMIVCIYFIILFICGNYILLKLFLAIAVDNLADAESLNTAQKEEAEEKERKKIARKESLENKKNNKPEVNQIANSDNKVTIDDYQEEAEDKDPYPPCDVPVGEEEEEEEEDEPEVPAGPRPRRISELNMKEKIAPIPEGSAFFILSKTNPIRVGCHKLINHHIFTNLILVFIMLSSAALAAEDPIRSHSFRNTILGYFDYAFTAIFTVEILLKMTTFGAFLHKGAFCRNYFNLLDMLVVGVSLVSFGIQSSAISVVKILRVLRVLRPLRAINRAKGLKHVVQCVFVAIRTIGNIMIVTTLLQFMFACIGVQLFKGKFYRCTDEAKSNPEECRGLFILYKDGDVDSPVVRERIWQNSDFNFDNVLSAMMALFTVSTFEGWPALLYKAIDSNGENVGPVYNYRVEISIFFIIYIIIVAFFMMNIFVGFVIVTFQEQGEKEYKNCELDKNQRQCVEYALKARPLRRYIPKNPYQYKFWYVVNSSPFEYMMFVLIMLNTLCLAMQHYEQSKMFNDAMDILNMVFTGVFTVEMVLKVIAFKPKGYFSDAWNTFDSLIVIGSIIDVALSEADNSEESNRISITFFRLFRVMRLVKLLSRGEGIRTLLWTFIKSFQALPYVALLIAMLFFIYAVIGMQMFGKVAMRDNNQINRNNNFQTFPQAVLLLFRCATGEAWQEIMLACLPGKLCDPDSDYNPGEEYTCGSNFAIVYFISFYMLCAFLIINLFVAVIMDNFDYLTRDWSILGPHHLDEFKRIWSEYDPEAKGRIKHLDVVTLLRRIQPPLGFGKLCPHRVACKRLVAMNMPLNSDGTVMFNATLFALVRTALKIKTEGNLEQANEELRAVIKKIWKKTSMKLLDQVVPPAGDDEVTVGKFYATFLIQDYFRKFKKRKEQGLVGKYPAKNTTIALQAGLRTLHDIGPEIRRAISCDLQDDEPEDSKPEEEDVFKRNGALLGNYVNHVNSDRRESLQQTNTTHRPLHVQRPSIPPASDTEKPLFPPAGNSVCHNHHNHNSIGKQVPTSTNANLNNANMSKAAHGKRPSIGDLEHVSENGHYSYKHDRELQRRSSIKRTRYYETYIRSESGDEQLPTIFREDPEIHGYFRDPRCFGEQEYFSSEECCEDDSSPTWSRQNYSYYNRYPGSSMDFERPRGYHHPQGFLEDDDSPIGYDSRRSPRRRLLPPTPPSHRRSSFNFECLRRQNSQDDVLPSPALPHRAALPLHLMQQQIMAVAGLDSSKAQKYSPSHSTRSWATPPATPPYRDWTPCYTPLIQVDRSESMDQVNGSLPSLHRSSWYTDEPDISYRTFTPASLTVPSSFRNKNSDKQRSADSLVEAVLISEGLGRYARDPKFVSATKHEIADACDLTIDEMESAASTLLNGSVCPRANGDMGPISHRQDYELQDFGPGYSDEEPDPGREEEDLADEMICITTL
Experiment: L-type Ca2+ channel agonist activity, whole-cell perforated patch clamp in tsA-201 cells
Assay type: cell-based
Details: b265; read-out: agonist effects on L-type calcium channels EC50
pEC50: −log10 of the molar value.
PROPERTY_NAME: pEC50

Please indicate pEC50 recorded for CCCn1cnc2c(NCc3ccc(C)s3)nc(N[C@H](CC)CO)nc21 [Compound 13x]
< 4.00

----------
Target: N-type Ca^2+ channel (Cav2.2) (Rattus norvegicus)
Construct: expressed in transfected cells; later also transient transfection
Sequence (Q02294 whole entry): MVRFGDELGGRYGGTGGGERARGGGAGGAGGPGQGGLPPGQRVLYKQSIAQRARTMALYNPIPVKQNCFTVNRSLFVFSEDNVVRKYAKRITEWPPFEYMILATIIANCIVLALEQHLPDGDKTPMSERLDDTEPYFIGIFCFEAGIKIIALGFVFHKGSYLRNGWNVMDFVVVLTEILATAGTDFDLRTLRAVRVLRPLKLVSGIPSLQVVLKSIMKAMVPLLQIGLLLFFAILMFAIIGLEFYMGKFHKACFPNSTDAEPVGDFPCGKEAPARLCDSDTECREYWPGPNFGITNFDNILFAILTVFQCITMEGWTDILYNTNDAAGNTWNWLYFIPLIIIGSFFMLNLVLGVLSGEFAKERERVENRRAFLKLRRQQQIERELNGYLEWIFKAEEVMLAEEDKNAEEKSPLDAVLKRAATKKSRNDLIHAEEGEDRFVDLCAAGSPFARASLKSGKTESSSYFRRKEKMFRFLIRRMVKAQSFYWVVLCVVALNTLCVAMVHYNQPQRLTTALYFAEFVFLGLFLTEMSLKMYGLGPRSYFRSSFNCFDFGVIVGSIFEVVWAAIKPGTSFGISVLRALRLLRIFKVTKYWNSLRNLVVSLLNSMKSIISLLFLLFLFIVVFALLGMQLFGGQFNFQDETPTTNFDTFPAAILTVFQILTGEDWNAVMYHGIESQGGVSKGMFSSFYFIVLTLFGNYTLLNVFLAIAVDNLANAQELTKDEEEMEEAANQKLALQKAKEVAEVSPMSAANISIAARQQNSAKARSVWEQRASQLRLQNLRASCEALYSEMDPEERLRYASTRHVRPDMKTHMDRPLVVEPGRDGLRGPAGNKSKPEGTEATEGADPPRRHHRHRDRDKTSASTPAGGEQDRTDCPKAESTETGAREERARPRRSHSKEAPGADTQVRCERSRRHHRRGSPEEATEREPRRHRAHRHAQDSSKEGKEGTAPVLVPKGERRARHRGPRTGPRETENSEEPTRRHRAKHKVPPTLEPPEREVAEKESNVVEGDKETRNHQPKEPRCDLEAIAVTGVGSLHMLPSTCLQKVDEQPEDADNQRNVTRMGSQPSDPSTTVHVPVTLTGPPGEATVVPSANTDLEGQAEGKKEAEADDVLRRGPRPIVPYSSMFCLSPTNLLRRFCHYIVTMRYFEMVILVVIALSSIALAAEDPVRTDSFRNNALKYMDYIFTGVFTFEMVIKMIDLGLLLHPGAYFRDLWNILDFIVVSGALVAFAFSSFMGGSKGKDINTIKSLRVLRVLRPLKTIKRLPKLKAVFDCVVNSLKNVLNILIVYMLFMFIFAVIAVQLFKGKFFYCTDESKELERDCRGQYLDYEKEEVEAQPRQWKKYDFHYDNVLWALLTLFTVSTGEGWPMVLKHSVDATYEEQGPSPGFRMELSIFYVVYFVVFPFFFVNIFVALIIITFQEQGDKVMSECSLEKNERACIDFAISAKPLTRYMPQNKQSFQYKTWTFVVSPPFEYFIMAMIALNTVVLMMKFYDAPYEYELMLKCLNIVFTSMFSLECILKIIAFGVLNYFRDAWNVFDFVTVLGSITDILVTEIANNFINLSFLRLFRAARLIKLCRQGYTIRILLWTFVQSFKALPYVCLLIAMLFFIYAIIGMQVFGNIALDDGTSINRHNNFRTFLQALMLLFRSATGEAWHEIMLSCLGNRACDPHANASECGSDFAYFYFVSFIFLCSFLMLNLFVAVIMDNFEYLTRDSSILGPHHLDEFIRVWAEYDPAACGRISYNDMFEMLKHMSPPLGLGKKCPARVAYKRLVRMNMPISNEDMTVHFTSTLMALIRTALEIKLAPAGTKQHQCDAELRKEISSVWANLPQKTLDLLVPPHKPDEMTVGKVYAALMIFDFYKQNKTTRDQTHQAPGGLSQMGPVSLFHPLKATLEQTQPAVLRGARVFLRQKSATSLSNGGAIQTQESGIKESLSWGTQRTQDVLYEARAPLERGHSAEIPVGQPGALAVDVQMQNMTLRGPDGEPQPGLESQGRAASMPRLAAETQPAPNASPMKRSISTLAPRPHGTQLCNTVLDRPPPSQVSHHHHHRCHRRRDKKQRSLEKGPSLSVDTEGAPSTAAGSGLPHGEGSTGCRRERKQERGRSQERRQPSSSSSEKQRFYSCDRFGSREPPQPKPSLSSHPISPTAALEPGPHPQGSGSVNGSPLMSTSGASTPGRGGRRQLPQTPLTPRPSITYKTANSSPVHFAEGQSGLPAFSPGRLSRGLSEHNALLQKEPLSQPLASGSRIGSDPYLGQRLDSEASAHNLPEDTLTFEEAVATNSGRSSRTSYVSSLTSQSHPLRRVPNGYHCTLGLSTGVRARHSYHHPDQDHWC
Experiment: N-type Ca2+ channel agonist activity, whole-cell perforated patch clamp of tail currents in tsA201 cells
Type: cell-based
Details: whole cell perforated patch clamp, deactivation (tail) currents from N-type channels; read-out: N-Type Ca^2+ Channel Activity EC50 +/− SEM
pEC50: −log10 of the molar value.
PROPERTY_NAME: pEC50

Would you please look over these solved cases?
COMPOUND	PROPERTY_NAME	TEST_VALUE
CCCn1cnc2c(NCc3ccc(C(F)(F)F)cc3)nc(N[C@H](CC)CO)nc21 [Compound 13o]	pEC50	< 4.00
CC[C@H](CO)Nc1nc(NCC2CC2)c2ncn(C)c2n1 [Compound 13m]	pEC50	< 4.00
CCCn1cnc2c(NCCc3ccccc3)nc(N[C@H](CC)CO)nc21 [Compound 13c]	pEC50	< 4.00

Shifting focus to the compound that follows.
Please indicate pEC50 recorded for CC[C@H](CO)Nc1nc(Nc2ccccc2)c2ncn(C)c2n1 [Compound 13l]
< 4.00
